Mu-type opioid receptor (Homo sapiens, UniProt P35372) measurements of pKi, listed per entry.
Sequence (P35372 whole entry): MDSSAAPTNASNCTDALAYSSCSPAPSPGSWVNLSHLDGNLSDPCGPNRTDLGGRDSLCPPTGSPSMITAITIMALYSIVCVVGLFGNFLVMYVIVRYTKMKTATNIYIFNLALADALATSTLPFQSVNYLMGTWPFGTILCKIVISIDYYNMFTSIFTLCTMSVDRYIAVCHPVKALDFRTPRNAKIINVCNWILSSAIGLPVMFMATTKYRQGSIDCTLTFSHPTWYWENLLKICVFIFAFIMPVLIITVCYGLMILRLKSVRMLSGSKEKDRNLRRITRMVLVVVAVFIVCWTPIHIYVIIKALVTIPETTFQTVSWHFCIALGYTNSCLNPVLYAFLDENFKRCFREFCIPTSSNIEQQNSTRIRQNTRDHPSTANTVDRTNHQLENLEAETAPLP
Scale for pKi: -log10 of concentration given in mol/L; no unit attached.

In: Please give the measured pKi for this compound: O=C1N[C@H](Cc2c[nH]c3ccccc23)C(=O)NCC(=O)N2CCC[C@@H]2C(=O)N[C@H]1Cc1ccccc1
Out: 6.11

In: Would you mind telling me what pKi value was observed for CC(=O)N1CCC[C@@H]1C(=O)N[C@@H](Cc1ccccc1)C(=O)N[C@H](Cc1c[nH]c2ccccc12)C(=O)N[C@@H](Cc1ccccc1)C(N)=O ?
Out: 6.47

---

Biological target: Kappa-type opioid receptor (Cavia porcellus)
Sequence (P41144 whole entry): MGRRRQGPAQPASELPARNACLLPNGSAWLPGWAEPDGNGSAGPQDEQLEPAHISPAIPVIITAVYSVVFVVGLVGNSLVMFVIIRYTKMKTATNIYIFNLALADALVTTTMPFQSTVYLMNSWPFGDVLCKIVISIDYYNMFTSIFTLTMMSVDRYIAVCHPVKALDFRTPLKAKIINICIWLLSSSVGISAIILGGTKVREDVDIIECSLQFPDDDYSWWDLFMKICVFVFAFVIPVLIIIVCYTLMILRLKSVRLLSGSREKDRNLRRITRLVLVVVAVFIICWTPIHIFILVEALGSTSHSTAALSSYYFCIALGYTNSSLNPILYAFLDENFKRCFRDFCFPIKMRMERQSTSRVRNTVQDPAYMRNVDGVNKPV
Assay: Binding affinity to kappa opioid receptor in guinea pig brain membrane
Square brackets hold non-standard residues; d marks the D form. Peptide text beside a SMILES is read from it.
readout-label: IC50 (nM)
Form entry: value (nM) — number only.

In: Using the record for O=C1N[C@@H](Cc2ccccc2)C(=O)N2CCC[C@@H]2C(=O)N[C@@H](Cc2ccccc2)C(=O)N[C@H]1Cc1c[nH]c2ccccc12 (cyclo(FWF[dP])) , report its IC50.
Out: 47
